# System: Escherichia coli TOP10
# ASSAY: shrunken log2 fold change of peptide-encoding DNA abundance (4.5 h post-induction vs induction); higher = less antimicrobial activity (less host growth inhibition)
# EXPERIMENTAL SETUP: time post-induction: 4.5 h; library: site-saturation at positions 5, 18, 19, 20
Please mark met if the recorded shrunken log2 fold change is equal to or greater than 0.01, and not met if it falls below.

Consider the following illustrative entries.
ITEM SEQUENCE	ASSAYED TARGET	CLASS
RRIRKRPPRLPRPRPRPIISPRP	Escherichia coli TOP10	not met
RRIRRRPPRLPRPRPRPFQHPRP	Escherichia coli TOP10	not met
RRIRKRPPRLPRPRPRPGGFPRP	Escherichia coli TOP10	met

Q. Reported shrunken log2 fold change at or above 0.01? "RRIRMRPPRLPRPRPRPFKPPRP"
A. not met

Q. Identify whether the reported shrunken log2 fold change of the following sequence is 0.01 or greater: "RRIRDRPPRLPRPRPRPDNKPRP"
A. not met

Q. Item "RRIRSRPPRLPRPRPRPASCPRP" with shrunken log2 fold change of 0.01 or above?
A. met

Q. Could you please find out whether "RRIRSRPPRLPRPRPRPIMQPRP" has shrunken log2 fold change that meets 0.01 or exceeds it?
A. not met

Q. I'd appreciate it if you could say whether "RRIRYRPPRLPRPRPRPEDVPRP" has shrunken log2 fold change at least equal to 0.01.
A. not met

Q. Hi, just wondering whether "RRIRYRPPRLPRPRPRPFHIPRP" shows shrunken log2 fold change of 0.01 or higher.
A. not met

Q. # bool: shrunken log2 fold change of "RRIRQRPPRLPRPRPRPREVPRP" >= 0.01
A. met

Q. Could you please find out whether "RRIRPRPPRLPRPRPRPCKWPRP" has shrunken log2 fold change that meets 0.01 or exceeds it?
A. not met

---

# Tested on: Escherichia coli TOP10
# ASSAY: shrunken log2 fold change of peptide-encoding DNA abundance (4.5 h post-induction vs induction); higher = less antimicrobial activity (less host growth inhibition)
# EXPERIMENTAL SETUP: time post-induction: 4.5 h; library: site-saturation at positions 5, 18, 19, 20
Measured shrunken log2 fold change by item

Observe how each entry below is paired with its result.
ITEM SEQUENCE	PROPERTY	RESULT
RRIRIRPPRLPRPRPRPAVHPRP	shrunken log2 fold change	-0.145
RRIRRRPPRLPRPRPRPVCWPRP	shrunken log2 fold change	0.586
RRIRPRPPRLPRPRPRPLGFPRP	shrunken log2 fold change	0.49

Q. Need shrunken log2 fold change of "RRIRERPPRLPRPRPRPVWSPRP" , thanks.
A. 0.158

Q. // returns reported shrunken log2 fold change for input "RRIRDRPPRLPRPRPRPLRGPRP"
A. 0.112

Q. // lookup shrunken log2 fold change for "RRIRRRPPRLPRPRPRPVNAPRP"
A. 0.37

Q. Recorded shrunken log2 fold change for "RRIRHRPPRLPRPRPRPQDVPRP" , please?
A. 0.0527

Q. What value of shrunken log2 fold change has been recorded for this entry: "RRIRNRPPRLPRPRPRPFIYPRP"
A. -0.856

Q. Give the measured shrunken log2 fold change of "RRIRDRPPRLPRPRPRPRMEPRP" .
A. -0.239

Q. What value of shrunken log2 fold change has been recorded for this entry: "RRIRERPPRLPRPRPRPKNVPRP"
A. 0.0204

Q. May I ask what shrunken log2 fold change has been recorded for "RRIRFRPPRLPRPRPRPNMDPRP" ?
A. 1.48

Q. So what's the measured shrunken log2 fold change for this one? "RRIRKRPPRLPRPRPRPATYPRP"
A. 0.0782

---

# Test system: Escherichia coli TOP10
# ASSAY: shrunken log2 fold change of peptide-encoding DNA abundance (4.5 h post-induction vs induction); higher = less antimicrobial activity (less host growth inhibition)
# EXPERIMENTAL SETUP: time post-induction: 4.5 h; library: site-saturation at positions 5, 18, 19, 20
Listing of recorded shrunken log2 fold change by entry.
Keep it simple and answer with nothing but the number.

Reference set (5 entries):
ITEM SEQUENCE	shrunken log2 fold change
RRIRVRPPRLPRPRPRPGPQPRP	0.245
RRIRQRPPRLPRPRPRPYTRPRP	-0.0062
RRIRIRPPRLPRPRPRPVLIPRP	-0.469
RRIRARPPRLPRPRPRPIHDPRP	-0.0961
RRIRIRPPRLPRPRPRPSYGPRP	-0.53

Q. What does the data say about its shrunken log2 fold change? Entry: "RRIRTRPPRLPRPRPRPMFRPRP"
A. -0.193

Q. # shrunken log2 fold change lookup, item "RRIRRRPPRLPRPRPRPQWSPRP"
A. -0.00927

Q. Data request, read-out shrunken log2 fold change, for "RRIRLRPPRLPRPRPRPFGAPRP"
A. -0.0596

Q. Can you share its shrunken log2 fold change? I mean this sequence: "RRIRIRPPRLPRPRPRPQGVPRP"
A. -0.0375

Q. Please report the recorded shrunken log2 fold change for "RRIRYRPPRLPRPRPRPIRAPRP" .
A. 0.0501

---

Documented shrunken log2 fold change across a set of sequences
# System: Escherichia coli TOP10
# ASSAY: shrunken log2 fold change of peptide-encoding DNA abundance (4.5 h post-induction vs induction); higher = less antimicrobial activity (less host growth inhibition)
# EXPERIMENTAL SETUP: time post-induction: 4.5 h; library: site-saturation at positions 5, 18, 19, 20

ITEM SEQUENCE	shrunken log2 fold change
RRIRVRPPRLPRPRPRPFTNPRP	-0.0456
RRIRERPPRLPRPRPRPLYWPRP	-0.383
RRIRVRPPRLPRPRPRPKFVPRP	0.11

Q. For the sequence shown here, "RRIRKRPPRLPRPRPRPEWYPRP" , give the reported shrunken log2 fold change.
A. -0.204

Q. What does the record list as shrunken log2 fold change for "RRIRQRPPRLPRPRPRPASGPRP" ?
A. -0.00438

Q. Could you share which shrunken log2 fold change value was measured for "RRIRPRPPRLPRPRPRPMMNPRP" ?
A. 0.03

Q. Requested field: shrunken log2 fold change. Item: "RRIRVRPPRLPRPRPRPKDHPRP"
A. -0.308

Q. Consider the sequence "RRIRGRPPRLPRPRPRPKWEPRP" and give its measured shrunken log2 fold change.
A. 1.13

Q. Which shrunken log2 fold change is reported for this sequence? "RRIRPRPPRLPRPRPRPWPIPRP"
A. 0.054

Q. Looking for the measured shrunken log2 fold change of "RRIRWRPPRLPRPRPRPVSYPRP" , can you help?
A. -0.131

Q. # query: shrunken log2 fold change of entry "RRIRCRPPRLPRPRPRPVIVPRP"
A. -0.208

Q. Recorded shrunken log2 fold change of "RRIRVRPPRLPRPRPRPKATPRP" , please.
A. 0.266

Q. Name the reported shrunken log2 fold change value associated with the sequence "RRIRPRPPRLPRPRPRPSATPRP"
A. 0.195

Q. Look at this sequence and give its reported shrunken log2 fold change. "RRIRMRPPRLPRPRPRPISQPRP"
A. -0.29

Q. What value of shrunken log2 fold change has been reported for the following sequence? "RRIRQRPPRLPRPRPRPNFWPRP"
A. -0.00668

Q. I have this sequence here, "RRIRVRPPRLPRPRPRPDFWPRP" , and I need its recorded shrunken log2 fold change.
A. 0.239

Q. // lookup shrunken log2 fold change for "RRIRIRPPRLPRPRPRPTGIPRP"
A. -0.0849

Q. Which shrunken log2 fold change reading was recorded for the sequence "RRIRERPPRLPRPRPRPSNWPRP" ?
A. -0.296

Q. Requested field: shrunken log2 fold change. Item: "RRIRDRPPRLPRPRPRPFKNPRP"
A. 0.11

Q. Would you kindly share the measured shrunken log2 fold change for "RRIRHRPPRLPRPRPRPDYDPRP" ?
A. -0.278

Q. What does the data say about its shrunken log2 fold change? Entry: "RRIRTRPPRLPRPRPRPAGTPRP"
A. 0.0902

Q. Dear colleague, I am looking for the recorded shrunken log2 fold change of the following sequence: "RRIRFRPPRLPRPRPRPMAPPRP"
A. 0.114

---

# Tested on: Escherichia coli TOP10;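 also: peptides expressed intracellularly from a pBAD plasmid library in pooled LB shake-flask culture, induced with 0.3% L-arabinose, DNA abundance read by NGS, three biological replicates, DESeq2 with apeglm shrinkage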
# ASSAY: shrunken log2 fold change of peptide-encoding DNA abundance (4.5 h post-induction vs induction); higher = less antimicrobial activity (less host growth inhibition)
# EXPERIMENTAL SETUP: time post-induction: 4.5 h; library: site-saturation at positions 5, 18, 19, 20
Label scheme for shrunken log2 fold change: lower than -0.1 is 0 (no), -0.1 and above is 1 (yes).

Take a look at these entries with their results.
ITEM SEQUENCE	CLASS
RRIRDRPPRLPRPRPRPPDAPRP	1 (yes)
RRIRARPPRLPRPRPRPFQIPRP	1 (yes)
RRIRARPPRLPRPRPRPYNIPRP	0 (no)
RRIRQRPPRLPRPRPRPMKPPRP	1 (yes)
RRIRQRPPRLPRPRPRPFAWPRP	1 (yes)

Q. Kindly determine if shrunken log2 fold change recorded for "RRIRKRPPRLPRPRPRPIRQPRP" is above or exactly -0.1.
A. 1 (yes)

Q. Quick check: does "RRIRGRPPRLPRPRPRPMDVPRP" have shrunken log2 fold change greater than or equal to -0.1?
A. 1 (yes)

Q. Can "RRIRVRPPRLPRPRPRPWIVPRP" be said to have shrunken log2 fold change at or above -0.1?
A. 0 (no)

Q. // inclusive: shrunken log2 fold change at least -0.1? input: "RRIRMRPPRLPRPRPRPWGHPRP"
A. 1 (yes)

Q. Check this sequence for shrunken log2 fold change at or above -0.1: "RRIRWRPPRLPRPRPRPKVSPRP"
A. 1 (yes)

Q. In plain terms: is recorded shrunken log2 fold change at least -0.1 for "RRIRIRPPRLPRPRPRPYHTPRP" ?
A. 0 (no)

Q. Determine whether measured shrunken log2 fold change meets or exceeds -0.1 for "RRIRTRPPRLPRPRPRPKYRPRP"
A. 0 (no)

Q. Answer whether shrunken log2 fold change of "RRIRPRPPRLPRPRPRPWWPPRP" is greater than or equal to -0.1.
A. 1 (yes)

Q. Item "RRIRKRPPRLPRPRPRPNPMPRP" with shrunken log2 fold change of -0.1 or above?
A. 1 (yes)

Q. Does the reported shrunken log2 fold change for "RRIRNRPPRLPRPRPRPPEEPRP" fall at or above the -0.1 mark?
A. 1 (yes)

Q. # check: shrunken log2 fold change of "RRIRVRPPRLPRPRPRPVVKPRP" is greater than or equal to -0.1
A. 0 (no)

Q. Decide: is the reported value of shrunken log2 fold change for "RRIRWRPPRLPRPRPRPTNFPRP" equal to or greater than -0.1?
A. 1 (yes)

Q. Check if shrunken log2 fold change >= -0.1 (inclusive). Item: "RRIRYRPPRLPRPRPRPISWPRP"
A. 1 (yes)

Q. For this sequence, is measured shrunken log2 fold change -0.1 or higher? "RRIRQRPPRLPRPRPRPWEFPRP"
A. 0 (no)
